Ref: patent US20230235047A1

TARGET_UNDER_TEST: T1, human CLDN18.1 on cells (CHO-hCLDN18.1) (human, UniProt P56856 1-261)
T1 construct: whole, on cells; also called human Claudin18.1
ASSAY_METHOD_TEXT: flow cytometry, hybridoma supernatant on CHO-hCLDN18.1

BINDER	binding result
59C1 (antibody secreted by the hybridoma, culture supernatant) (antibody, V domains shown) VH: QVQLKESGPDLVKPSQSLSLTCTVTGYSITSGYGWNWIRQFPGNKLEWMGYIHFSGSTNYNPSLKSRISITRDTSKNQFFLQLNSVTTEDTATYYCARSGKGNAMDYWGQGTSVTVSS VL: DIQMTQSPSSLTVTAGEKVTMSCKSSQSLLNSGNQKNYLTWYQQKPGQPPKLLIYWASTRESGVPDRFTGSGSGTDFTLTVINMQAEDLALYYCQNDYYFPFTFGSGTKLEIK	no binding
3G3 (antibody secreted by the hybridoma, culture supernatant) (antibody, V domains shown) VH: QVQLQQSGPQLVRPGASVKISCKASGYSFTTYWMHWVKQRPGQGLEWIGLIDPSDSETRLNQKFKDKATLTVDKSSSTAYMRLSSPTSEDSAVYYCASNRWLLGWGQGTLVTVSS VL: DIQMIQSPSSLTVTAGEKVTMSCKSSQSLLNSGNQKNYLTWYQQKPGQPPKLLIYWASTRESGVPDRFTGSGSGTDFTLTISSVQTEDLAVYYCQNDYSYPLTFGAGTKLEIK	no binding
